Where these numbers come from: PubChem BioAssay AID652126

test system: Nuclear hormone receptor DAF-12 (Strongyloides stercoralis); assay: S. stercoralis DAF-12 nuclear receptor activators, primary screen, cell-based, luminescence, HEK293, GRIP1 co-expression, lit1-tk-luc (AID 652126); details: HEK293 ssDAF-12/GRIP1 lit1-tk-luc reporter, at 6.8 µM, active compounds read high, % of 3 µM dafachronic acid response;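 note: 0% = DMSO-only wells and 100% = 3 µM delta7-dafachronic acid wells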
About 3,700 (1%) of roughly 370,000 compounds were called active. The entries come from a sample that favours actives as a whole.
The reader will find reported activation values listed item by item below.
A number alone suffices; assume %.

{"columns": ["Compound", "Unit Tag", "activation"],
 "data": [
  ["C[C@H]1CCC/C=C/C(=O)c2c(O)cc(O)cc2CC(=O)O1", "%", -1.77],
  ["CCCCOCCCNC(=O)C[C@H]1C[C@@]2(C(=O)OC)C(=C[C@H](COCc3ccccc3)O[C@@H]2C)N(Cc2cccc3ccccc23)C1=O", "%", -1.25],
  ["Brc1ccc(-c2noc(-c3ccccc3)n2)o1", "%", 1.12]
]}

Input line: Quick one: activation for CCOC(=O)CC1(NC(=O)c2cc(COc3cncc(Cl)c3)on2)CCCCC1 ?
Output line: -1.57

Input line: Again, but for Cc1cc(NC(=O)CSCc2ccccc2C)no1
Output line: -1.6

Input line: Again, but for COc1ccc(C(=O)Nc2sc(C)c(C)c2CN2CCOCC2)cc1
Output line: 1.65

Input line: Again, but for Cc1ccc(NC(=O)c2cc3ccccc3o2)cc1
Output line: 2.98

----------
tested on: Nuclear hormone receptor DAF-12 (Strongyloides stercoralis); assay: S. stercoralis DAF-12 nuclear receptor activators, primary screen, cell-based, luminescence, HEK293, GRIP1 co-expression, lit1-tk-luc (AID 652126); conditions: HEK293 ssDAF-12/GRIP1 lit1-tk-luc reporter, at 6.8 µM, active compounds read high, % of 3 µM dafachronic acid response;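 note: 0% = DMSO-only wells and 100% = 3 µM delta7-dafachronic acid wells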
Screen size: about 370,000 compounds; about 3,700 (1%) were called active. The entries come from a sample that favours actives as a whole.
Metric: activation (%)
A number alone suffices; assume %.

Examples with answers:
{"columns": ["Molecule", "Study Target", "Data Value"],
 "data": [
  ["COc1ccc(C2=Nc3cc(C)ccc3OC2)cc1", "Nuclear hormone receptor DAF-12 (Strongyloides stercoralis)", 1.43],
  ["COC(=O)c1ccc(NC(=S)Nc2cccc(C)n2)cc1", "Nuclear hormone receptor DAF-12 (Strongyloides stercoralis)", -0.35],
  ["COc1cccc(/C=C2\\CC3(OC(C)=O)CCCN2C3)c1 (centres undefined)", "Nuclear hormone receptor DAF-12 (Strongyloides stercoralis)", -1.47]
]}

Input line: Quick one: activation for Cc1ccc(NC(=O)Nc2cc(C)nn2-c2ccccc2)cc1 ?
Output line: -0.89

Input line: Again, but for Cn1c(=O)[nH]c(=O)c2c1nc(CN1CCN(c3ccccc3F)CC1)n2CCc1ccccc1
Output line: -1.22

Input line: Again, but for COc1ccc(/C=C/c2c(-c3cccc(C)c3)oc3ccc(-c4ccc5c(c4)OCO5)cc23)cc1
Output line: -1.12

Input line: Again, but for COc1ccccc1Cc1c(-c2ccc(Cl)cc2)nc2c3ccccc3ccn12
Output line: 0.62

Input line: Again, but for O=C(CN1C(=O)NC2(CCCCC2)C1=O)NCCC1=CCCCC1
Output line: -1.49

Input line: Again, but for Cc1ccc(NC(=O)Nc2cccc(C(F)(F)F)c2)nc1
Output line: 4.62

Input line: Again, but for COc1ccc(CSc2nnc(SCC(=O)Nc3ccccc3C(F)(F)F)s2)cc1
Output line: -1.22

Input line: Again, but for Brc1ccc2nc(-c3ccccc3)c(Cc3ccccc3)n2c1
Output line: -0.45

Input line: Again, but for Fc1ccc(-c2nnc(CSc3nnc(-c4ccc5c(c4)OCO5)o3)o2)cc1
Output line: -1.18

Input line: Again, but for Cc1cc(S(=O)(=O)N2CCOCC2)ccc1OCC(=O)Nc1cccc(C(F)(F)F)c1
Output line: -1.62

----------
The reader will find reported activation values listed item by item below.
system: Nuclear hormone receptor DAF-12 (Strongyloides stercoralis); assay: S. stercoralis DAF-12 nuclear receptor activators, primary screen, cell-based, luminescence, HEK293, GRIP1 co-expression, lit1-tk-luc (AID 652126); settings: HEK293 ssDAF-12/GRIP1 lit1-tk-luc reporter, at 6.8 µM, active compounds read high, % of 3 µM dafachronic acid response;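 note: 0% = DMSO-only wells and 100% = 3 µM delta7-dafachronic acid wells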
Out of some 370,000 compounds screened, about 3,700 (1%) were called active. For the sample, actives were picked, then their nearest neighbours and some compounds at random.
A number alone suffices; assume %.

{"columns": ["Molecule", "Unit Tag", "activation"],
 "data": [
  ["COC(=O)[C@]12C[C@H](CC(=O)NCCCN3CCCC3=O)C(=O)N(CCc3ccc(OC)c(OC)c3)C1=C[C@H](COCc1ccccc1)O[C@@H]2C", "%", -0.18]
]}

Input line: Quick one: activation for COC(=O)[C@]12C[C@H](CC(=O)N3CCOCC3)C(=O)N(Cc3ccc(Cl)cc3Cl)C1=C[C@H](COCc1ccccc1)O[C@@H]2C ?
Output line: -0.98

Input line: Again, but for CCCCNC(=O)C[C@H]1C(=O)N(Cc2ccc(OC)cc2)C2=CCCC[C@@]21C(=O)OCC
Output line: -0.84

Input line: Again, but for Cc1ccnc(-n2sc3ccccc3c2=O)n1
Output line: 0.16

----------
The reader will find reported activation values listed item by item below.
system: Nuclear hormone receptor DAF-12 (Strongyloides stercoralis); assay: S. stercoralis DAF-12 nuclear receptor activators, primary screen, cell-based, luminescence, HEK293, GRIP1 co-expression, lit1-tk-luc (AID 652126); details: HEK293 ssDAF-12/GRIP1 lit1-tk-luc reporter, at 6.8 µM, active compounds read high, % of 3 µM dafachronic acid response;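 note: 0% = DMSO-only wells and 100% = 3 µM delta7-dafachronic acid wells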
Hit rate of the full screen: of about 370,000 compounds, about 3,700 (1%) were called active. Shown is part of a subset that was picked to be rich in actives.
A number alone suffices; assume %.

Examples with answers:
{"columns": ["Compound", "Metric", "Data Value"],
 "data": [
  ["CCCCNC(=O)C[C@H]1C[C@@]2(C(=O)OC)C(=C[C@H](COCc3ccccc3)O[C@@H]2C)N(Cc2ccc(Cl)cc2Cl)C1=O", "activation", -1.35],
  ["O=C(O)c1cccc(S(=O)(=O)N2CC=C(c3ccccc3)CC2)c1", "activation", -1.29],
  ["NNC(=O)C1CCCn2c1nc1sc3c(c1c2=O)CCCC3 (stereo unspecified)", "activation", 1.14],
  ["COc1ccccc1CNS(=O)(=O)c1cc(C(=O)NCc2ccccn2)c(Cl)cc1Cl", "activation", -1.13],
  ["CCCCNc1cccc2c1S(=O)(=O)N[C@@H](C)CO2", "activation", -0.23]
]}

Input line: Quick one: activation for O=C(c1c[nH]c2ccccc12)N1CCC(Oc2cccnc2)CC1 ?
Output line: -1.03

----------
system: Nuclear hormone receptor DAF-12 (Strongyloides stercoralis); assay: S. stercoralis DAF-12 nuclear receptor activators, primary screen, cell-based, luminescence, HEK293, GRIP1 co-expression, lit1-tk-luc (AID 652126); settings: HEK293 ssDAF-12/GRIP1 lit1-tk-luc reporter, at 6.8 µM, % of 3 µM dafachronic acid response;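 note: 0% = DMSO-only wells and 100% = 3 µM delta7-dafachronic acid wells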
Out of some 370,000 compounds screened, about 3,700 (1%) were called active.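 Rule for the calls: active = activation above the mean over all tested compounds plus 3 SD (cut at about 0.9% in these data); inactive = the rest.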 Shown is part of a subset that was picked to be rich in actives.
Outcome (select one): active, inactive

Input line: Assay outcome for COC(=O)C1CCN(C(=O)c2cc(=O)[nH]c3ccccc23)CC1 : what was it?
Output line: active

Input line: Again, but for COC(=O)C1CN(CCc2ccccc2)CCS(=O)(=O)N1Cc1ccc(F)cc1 (stereo not given)
Output line: inactive

Input line: Again, but for CC1CCN(C(=O)COC(=O)c2cc(=O)[nH]c3ccccc23)CC1
Output line: inactive

Input line: Again, but for COC(=O)C1CCN(C(=O)COC(=O)c2cc(S(=O)(=O)N3CCOCC3)ccc2C)CC1
Output line: inactive

Input line: Again, but for O=C(NCCC1=CCCCC1)C1CCN(S(=O)(=O)c2ccc(Cl)s2)CC1
Output line: inactive

----------
tested on: Nuclear hormone receptor DAF-12 (Strongyloides stercoralis); test: S. stercoralis DAF-12 nuclear receptor activators, primary screen, cell-based, luminescence, HEK293, GRIP1 co-expression, lit1-tk-luc (AID 652126); details: HEK293 ssDAF-12/GRIP1 lit1-tk-luc reporter, at 6.8 µM, active compounds read high, % of 3 µM dafachronic acid response;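 note: 0% = DMSO-only wells and 100% = 3 µM delta7-dafachronic acid wells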
The whole screen tested about 370,000 compounds, of which about 3,700 (1%) were called active. This is one part of a sample in which actives are shown more often than they occur.
The reader will find reported activation values listed item by item below.
A number alone suffices; assume %.

{"columns": ["Compound", "Data Value"],
 "data": [
  ["Cc1cc(=O)[nH]c(SCC(=O)Nc2ccc(F)cc2F)n1", -1.31],
  ["COc1ccc(-n2c(SCC(=O)Nc3ccc4c(c3)OCCO4)nnc2-c2ccc(Cl)cc2)cc1", -1.63],
  ["CC1(C)N=C(N)NC(Nc2ccc(Cl)cc2)=N1", -1.4],
  ["Cc1nc2ccc(S(=O)(=O)NCC(=O)O)cc2s1", -0.93],
  ["Cc1ccc(C2=NN(C)c3nc4ccccc4n3C2)cc1", 1.2]
]}

Input line: Quick one: activation for CC(=O)Nc1ccc(S(=O)(=O)Nc2nccc(/C=C/c3ccccc3F)n2)cc1 ?
Output line: -0.24

Input line: Again, but for c1ccc2sc(NN=C3CCCC3)nc2c1
Output line: 1.21

Input line: Again, but for CCOC(=O)[C@]12CCCC=C1N(Cc1ccc(OC)cc1)C(=O)[C@@H]2CC(=O)NCc1cccs1
Output line: -1.35

Input line: Again, but for Cc1nc2ccccc2n1CC(O)c1ccccc1 (stereo not drawn)
Output line: -1.14

Input line: Again, but for COc1ccc2nc(-c3ccccn3)ccc2c1
Output line: 0.98

Input line: Again, but for CN(Cc1c(F)cccc1Cl)C(=O)CNC(=O)c1ccc2c(c1)OCO2
Output line: -0.2

Input line: Again, but for O=C(Nc1ccccc1F)c1ccc2c(c1)OCO2
Output line: 1.22

Input line: Again, but for COC(=O)c1sccc1NC(=O)c1ccc(Cl)cc1
Output line: 0.94

Input line: Again, but for COC(=O)c1cccc(Cn2ccc3ccc(-c4ccc5ccn(C(=O)c6ccccc6C)c5c4)cc32)c1
Output line: 0.19

Input line: Again, but for COC(=O)[C@H](C(C)C)N(CCc1cn(Cc2ccccc2)nn1)S(=O)(=O)c1ccc(F)cc1Br
Output line: -1.33

Input line: Again, but for CCS(=O)(=O)N1Cc2ccccc2CC1C(=O)Nc1nc2ccc(F)cc2s1 (stereo not drawn)
Output line: 0.55

Input line: Again, but for COc1ccc(Nc2ccc3ccccc3c2)cc1
Output line: 2.46

Input line: Again, but for C=CCN1C(=O)[C@@H](CC(=O)NCCCOCCCC)[C@]2(C(=O)OCC)CCCCC/C=C/12
Output line: -0.98

Input line: Again, but for COc1ccc(N2CCN(CCNS(=O)(=O)c3ccc(C(C)(C)C)cc3)CC2)cc1
Output line: -0.72

Input line: Again, but for COc1ccc(-n2c(SCC(=O)OC(C)C)nnc2-c2ccccn2)cc1
Output line: -1.58

Input line: Again, but for COc1ccc(Nc2cc(=O)n(-c3ccccc3)c3c2c(=O)n(C)c(=O)n3C)cc1
Output line: -0.93
